# experiment_notes: gradient 5% acetonitrile 3 min, to 50% in 2 min, to 85% in 15 min, held 3 min, 100 µL/min
# measurement_conditions: column: Zorbax Extend-C18 2.1 x 50 mm; eluents: water / acetonitrile, 0.1% formic acid
Threshold check on RP-LC retention time: at or above 800 s gives criterion met, strictly below gives criterion not met.

Data request: Kindly determine if RP-LC retention time recorded for CCC(CN(C)Cc1ccccc1)NC(=O)CN(c1ccccc1)S(=O)(=O)N(C)C (centres undefined) is above or exactly 800 s.
Data returned: criterion not met

Data request: Kindly determine if RP-LC retention time recorded for CCc1cccc(C)c1N(C(=O)Cn1c(COC)nc2ccccc21)C(C)COC (centres undefined) is above or exactly 800 s.
Data returned: criterion met

Data request: Kindly determine if RP-LC retention time recorded for COc1ccc(-c2nc3cnc(Br)cn3c2Nc2ccc3c(c2)OCCO3)cc1 is above or exactly 800 s.
Data returned: criterion met

Data request: Kindly determine if RP-LC retention time recorded for O=C1Nc2cc(C(=O)N3CCC(Cc4ccccc4)CC3)ccc2N2CCCCC12 (centres undefined) is above or exactly 800 s.
Data returned: criterion met

Data request: Kindly determine if RP-LC retention time recorded for COC(=O)c1ncn2c1C(=O)N(Cc1ccccc1F)C(C)(C(=O)NCc1ccc(C)cc1)C2 (centres undefined) is above or exactly 800 s.
Data returned: criterion not met

Data request: Kindly determine if RP-LC retention time recorded for O=C(NCc1ccc(Cl)cc1)c1nc(-c2ccncc2)cs1 is above or exactly 800 s.
Data returned: criterion not met

Data request: Kindly determine if RP-LC retention time recorded for Cc1ccc(NC(=O)C2CCN(S(C)(=O)=O)c3cc(C)ccc3O2)c(C)c1 (centres undefined) is above or exactly 800 s.
Data returned: criterion met

Data request: Kindly determine if RP-LC retention time recorded for CCc1ccc(NC(=O)c2cn(CC3CCCO3)cc3c(=O)n(-c4ccccc4)nc2-3)cc1 (centres undefined) is above or exactly 800 s.
Data returned: criterion met

Data request: Kindly determine if RP-LC retention time recorded for CC(C)CN(CC(=O)N(Cc1ccco1)CC1CCCO1)C(=O)c1ccc(F)cc1 (centres undefined) is above or exactly 800 s.
Data returned: criterion met

Data request: Kindly determine if RP-LC retention time recorded for CCOC(=O)c1cc([N+](=O)[O-])sc1NC(=O)c1nc2ccccc2s1 is above or exactly 800 s.
Data returned: criterion met

----------
Record form. Attribute: RP-LC retention time. Fill in for each entry.
# experiment_notes: gradient 5% acetonitrile 3 min, to 50% in 2 min, to 85% in 15 min, held 3 min, 100 µL/min
# measurement_conditions: column: Zorbax Extend-C18 2.1 x 50 mm; eluents: water / acetonitrile, 0.1% formic acid
One number for each entry, in s.

As a guide, the following entries are already answered.
- molecule: "COc1ccccc1C(=O)Nc1nnc(SCc2nnc(-c3ccccc3)o2)s1"
  measure_name: "RP-LC retention time"
  unit_info: "s"
  experimental_result: 914
- molecule: "O=C(Nc1ccc(Br)cc1)C1CCN(c2cc(N3CCCC3)ncn2)CC1"
  measure_name: "RP-LC retention time"
  unit_info: "s"
  experimental_result: 721
- molecule: "CC(=O)NC(C)c1nc(-c2ccccc2Cl)no1 (stereo not given)"
  measure_name: "RP-LC retention time"
  unit_info: "s"
  experimental_result: 687
- molecule: "Cc1ccc2c(c1)[C@H]1OCCC[C@H]1C(c1cccc(O)c1)N2 (stereo not given in full)"
  measure_name: "RP-LC retention time"
  unit_info: "s"
  experimental_result: 928
- molecule: "O=C(CN1C(=O)C(C(=O)N2CCCC2)Sc2ccccc21)Nc1cccc(Cl)c1 (stereo not given)"
  measure_name: "RP-LC retention time"
  unit_info: "s"
  experimental_result: 1080

Record RP-LC retention time for all entries; do not skip any.
1. Cc1noc(-c2ccc(NC(=O)c3cnn(-c4ccccc4)n3)cc2)n1
2. O=C(Cn1cnc2nc(N3CCCC(C(=O)NC4CC4)C3)sc2c1=O)NCCC1=CCCCC1 (stereo not given)
3. CN1CCN(C(=O)O[C@H]2c3nccnc3C(=O)N2c2ccc(Cl)cn2)CC1
4. O=C(C1CCCO1)N1CCC(CCOc2ccccc2)CC1 (stereo not given)
5. CCn1c(CCC(=O)NCc2ccc(C)cc2)nc2ccccc2c1=O

Data returned:
1. 980
2. 722
3. 660
4. 844
5. 796

Record RP-LC retention time for all entries; do not skip any.
1. CCOC(=O)c1noc2ncnc(Nc3cc(Cl)ccc3OC)c12
2. CC(C)C[C@H](NC(=O)Cn1cnc2ccccc2c1=O)C(=O)O
3. CC(=O)N1CCc2cc(-c3ccc(C(=O)NCCCN4CCCCC4)cc3)ccc21
4. Cc1ccc(CNC(=O)C2CCCN(c3nc4ccsc4c(=O)n3Cc3ccc(F)cc3)C2)cc1 (stereo not given)

Data returned:
1080
649
616
1010

Record RP-LC retention time for all entries; do not skip any.
1. C=CCN1C(=O)COc2ccc(-c3nc(NC(=O)Cc4ccccc4)sc3C)cc21
2. COc1cccc(NC(=O)NCCCN2CCN(c3ccccc3)CC2)c1OC
3. O=C(Cn1c(-c2ccc(F)cc2)nc2ccccc21)N1CCOCC1
4. Cc1cc(C)cc(C(=O)NC2CCN(c3cc(-c4ccc(Cl)cc4)[nH]n3)C2)c1 (stereo not given)
5. O=C(c1ccc(Cl)cc1)N1CCN(S(=O)(=O)c2cc3c4c(c2)CCC(=O)N4CCC3)CC1
6. CCC(C)NC(=O)c1c(C)sc2ccn(Cc3ccc(F)cc3)c(=O)c12 (stereo not given)

Data returned:
[1000, 582, 592, 883, 838, 929]
